Source of measurements: patent US20100273770A1

Quick reference for EC50 among some compounds
Target: human S1P1 receptor (Homo sapiens, UniProt P21453)
Construct: expressed in transfected cells; membranes
Sequence (P21453 whole entry): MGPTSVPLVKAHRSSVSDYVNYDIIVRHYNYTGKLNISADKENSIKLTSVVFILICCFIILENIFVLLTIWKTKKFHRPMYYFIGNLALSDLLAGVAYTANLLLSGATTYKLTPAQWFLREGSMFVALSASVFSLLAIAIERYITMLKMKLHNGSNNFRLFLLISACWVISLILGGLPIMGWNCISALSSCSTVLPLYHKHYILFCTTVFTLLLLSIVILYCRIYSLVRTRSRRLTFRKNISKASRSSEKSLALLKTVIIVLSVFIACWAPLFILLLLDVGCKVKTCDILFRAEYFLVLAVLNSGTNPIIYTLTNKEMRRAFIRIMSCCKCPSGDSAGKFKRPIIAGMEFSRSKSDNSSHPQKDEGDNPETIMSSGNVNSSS
Test: S1P1 GTPγS assay
Assay type: biochemical
Details: [35S]-GTPγS binding, human S1P1 rat hepatoma (RH7777) membranes, agonist; read-out: pEC50 (S1P1 GTPγS assay) (converted)
Where a name gives a salt, the structure may show the parent alone.

Guide cases for EC50, answers given:
> print(dat)
                                   compound  measured
1  CC(C)Oc1ccc(-c2nc(-c3cccc4c3OCCNC4CC(=O)O)no2)cc1Cl (stereo not drawn) [Example 7, hydrochloride]  < 100 nM
2  CC(C)Oc1ccc(-c2nc(-c3cccc4c3OCCNC4CCC(=O)O)no2)cc1C#N (stereo not drawn) [Example 14, formic acid salt]   < 10 nM
3  CC(C)Oc1ccc(-c2nc(-c3ccc4c(c3)CNC(CCC(=O)O)CO4)no2)cc1Cl (stereo not drawn) [Example 6, hydrochloride]   < 10 nM
4  CC(C)Oc1ncc(-c2nc(-c3cccc4c3OCCNC4CCCC(=O)O)no2)cc1Cl (stereo not drawn) [Example 11, hydrochloride]  < 100 nM
5  CC(C)Oc1ccc(-c2nc(-c3cccc4c3OCCNC4CCCC(=O)O)no2)cc1C#N (stereo not drawn) [Example 10, hydrochloride salt]  < 100 nM
6  CC(C)Oc1ccc(-c2nc(-c3cccc4c3OCCNC4CCCC(=O)O)no2)cc1Cl (stereo not drawn) [Example 12, hydrochloride]   < 10 nM
7  CC(C)Oc1ncc(-c2nc(-c3cccc4c3OCCNC4CC(=O)O)no2)cc1Cl (stereo not drawn)  < 100 nM
8  CC(C)Oc1ccc(-c2nc(-c3cccc4c3OCCNC4CCC(=O)O)no2)cc1Cl (stereo not drawn) [Example 13, formic acid salt]   < 10 nM

Then there is this compound:
Suppose we examine the compound CC(C)Oc1ccc(-c2nc(-c3ccc4c(c3)CNC(C(=O)O)CO4)no2)cc1Cl (stereo not drawn) [Example 5, hydrochloride] ; what EC50 value has been reported? < 100 nM
